target: human CD137 (human, UniProt Q07011 24-186); experiment: SPR Biacore T200, IgG captured on protein A, 25 C;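 further: antigens diluted in ACES running buffer at pH 7.4 were flowed over antibodies held on a CM3 chip bearing amine-coupled protein A, with buffer alone serving as blank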
Sequence (Q07011 24-186 limits assumed): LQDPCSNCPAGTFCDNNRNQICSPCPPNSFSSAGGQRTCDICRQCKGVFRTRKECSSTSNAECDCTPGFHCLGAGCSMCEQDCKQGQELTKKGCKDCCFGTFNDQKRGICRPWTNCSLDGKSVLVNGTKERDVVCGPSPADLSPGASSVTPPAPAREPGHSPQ
TEST_READOUT: Kd (nM)
The answer is to be given in nM; state only the numeric part.

Query Kd for dBBDu167/L094 (antibody, V domains shown, IgG format; constant regions not specified; also called dBBDu_167 dBBDu.L094) VH: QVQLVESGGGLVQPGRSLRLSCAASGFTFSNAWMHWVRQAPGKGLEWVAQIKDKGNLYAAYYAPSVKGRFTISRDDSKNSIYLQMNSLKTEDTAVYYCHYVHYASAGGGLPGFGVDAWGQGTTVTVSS VL: DIVMTQSPLSLPVTPGEPASISCYASEELLHINRHIYLHWYQQKPGQAPRLLIYKVYNRFNGVPDRFSGSGSGTDFTLKISRVEAEDVGVYYCAQGSSVPFTFGQGTKLEIK
8430

Could you please provide reported Kd for dBBDu193/L127 (antibody, V domains shown, IgG format; constant regions not specified; also called dBBDu_193 dBBDu.L127) VH: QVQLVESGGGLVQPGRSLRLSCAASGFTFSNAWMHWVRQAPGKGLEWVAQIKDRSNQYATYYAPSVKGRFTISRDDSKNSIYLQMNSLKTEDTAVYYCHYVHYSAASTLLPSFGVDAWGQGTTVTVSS VL: DIVMTQSPLSLPVTPGEPASISCRASEELLHINRHIFLHWYQQKPGQAPRLLIYKVYNRFTGVPDRFSGSGSGTDFTLKISRVEAEDVGVYYCAQGTSVPFTFGQGTKLEIK ? Thanks!
3300

Return the recorded Kd value; entry: dBBDu186/L108 (antibody, V domains shown, IgG format; constant regions not specified) VH: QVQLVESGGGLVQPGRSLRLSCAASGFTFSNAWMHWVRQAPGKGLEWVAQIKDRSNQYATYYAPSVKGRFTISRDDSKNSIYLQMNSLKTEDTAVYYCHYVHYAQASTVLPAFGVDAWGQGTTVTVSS VL: DIVMTQSPLSLPVTPGEPASISCRTSEELLHINRFTFLHWYQQKPGQAPRLLIYKVSNRFMGVPDRFSGSGSGTDFTLKISRVEAEDVGVYYCAQGSAVPFTFGQGTKLEIK
2410

Fill in reported Kd for this entry: dBBDu186/L098 (antibody, V domains shown, IgG format; constant regions not specified) VH: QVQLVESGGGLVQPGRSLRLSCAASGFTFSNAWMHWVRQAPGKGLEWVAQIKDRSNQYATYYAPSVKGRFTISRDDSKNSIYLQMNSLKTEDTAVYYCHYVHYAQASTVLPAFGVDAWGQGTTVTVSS VL: DIVMTQSPLSLPVTPGEPASISCAASEELVHINRYIFLHWYQQKPGQAPRLLIYKVSNRFIGVPDRFSGSGSGTDFTLKISRVEAEDVGVYYCAQGSQVPFTFGQGTKLEIK
2310

FYI, the data here is from patent US20210388087A1.
